# Protocol Notes: Phase 1 four-period crossover study of relative bioavailability and food effect, Compound 1 Capsules vs Oral Solution, plasma PK
# Format: in vivo, human
# Condition Details: human, plasma, po, 30 mg, single 30 mg oral dose, Capsules, fed [standard meal], healthy subjects, plasma; read-out: AUC0-inf, geometric mean
Assay Metric: AUC(0-inf) (ng·h/mL)
# unit: ng·h/mL | format: bare number

Exercise: Give me measured AUC(0-inf), please, for this compound: C[C@@]1(O)CC[C@H]2[C@H](CC[C@@H]3[C@@H]2CC[C@]2(C)[C@@H](C(=O)Cn4cc(C#N)cn4)CC[C@@H]32)C1 [Compound 1]
Key: 1010

---

# Protocol Notes: Phase 1 four-period crossover study of relative bioavailability and food effect, Compound 1 Capsules vs Oral Solution, plasma PK
# Type: in vivo, human
# Condition Details: human, plasma, po, 30 mg, single 30 mg oral dose, Capsules, fed [standard meal], healthy subjects, plasma; read-out: t1/2, arithmetic mean (converted)
Assay Metric: half-life (h)
Record the value in h, omitting the unit from your answer.

Exercise: Please indicate half-life recorded for C[C@@]1(O)CC[C@H]2[C@H](CC[C@@H]3[C@@H]2CC[C@]2(C)[C@@H](C(=O)Cn4cc(C#N)cn4)CC[C@@H]32)C1 [Compound 1]
Key: 14.9

---

# Protocol Notes: Phase 1 four-period crossover study of relative bioavailability and food effect, Compound 1 Capsules vs Oral Solution, plasma PK
# Assay type: in vivo, human
# Condition Details: human, plasma, po, 30 mg, single 30-mg oral dose, Capsules, fasted, healthy subjects, plasma; read-out: t1/2, arithmetic mean (converted)
Assay Metric: half-life (h)
Express it in h; write the number only.

Exercise: Give half-life for the following molecule: `C[C@@]1(O)CC[C@H]2[C@H](CC[C@@H]3[C@@H]2CC[C@]2(C)[C@@H](C(=O)Cn4cc(C#N)cn4)CC[C@@H]32)C1`
Key: 15.6

---

# Protocol Notes: Phase 1 four-period crossover study of relative bioavailability and food effect, Compound 1 Capsules vs Oral Solution, plasma PK
# Type: in vivo, human
# Condition Details: human, plasma, po, 30 mg, single 30-mg oral dose, Capsules, fasted, healthy subjects, plasma; read-out: AUC0-inf, median
Assay Metric: AUC(0-inf)

Exercise: Supply recorded AUC(0-inf) for C[C@@]1(O)CC[C@H]2[C@H](CC[C@@H]3[C@@H]2CC[C@]2(C)[C@@H](C(=O)Cn4cc(C#N)cn4)CC[C@@H]32)C1 [Compound 1] here.
Key: 650 ng·h/mL

---

# Protocol Notes: Phase 2 open-label study (Part A): plasma pharmacokinetics
# Type: in vivo, human
# Condition Details: human, plasma; Day 7; 30 mg oral solution once daily with food; N=13; read-out: Tmax, median
Assay Metric: Tmax (h)
Field: numeric (h). Do not append units.

Exercise: Give reported Tmax value for C[C@@]1(O)CC[C@H]2[C@H](CC[C@@H]3[C@@H]2CC[C@]2(C)[C@@H](C(=O)Cn4cc(C#N)cn4)CC[C@@H]32)C1 [Compound 1]
Key: 1.1

---

# Protocol Notes: Phase 1 four-period crossover study of relative bioavailability and food effect, Compound 1 Capsules vs Oral Solution, plasma PK
# Type: in vivo, human
# Condition Details: human, plasma, po, 30 mg, single 30 mg oral dose, Capsules, fed [standard meal], healthy subjects, plasma; read-out: tmax, median
Assay Metric: Tmax (h)
State the answer as a number, implicitly in h.

Exercise: Specify measured Tmax for `C[C@@]1(O)CC[C@H]2[C@H](CC[C@@H]3[C@@H]2CC[C@]2(C)[C@@H](C(=O)Cn4cc(C#N)cn4)CC[C@@H]32)C1` .
Key: 4
